From: patent US20250332167A1

# System: HLF
# protocol: Proliferation inhibition, non-small cell lung cancer cell line HLF
# Assay type: cell-based
# measurement_setup: Homo sapiens, 72 h
assay_metric: IC50
In your response, put the unit directly after the numeric value.

[Q] Read off the recorded IC50 for CC1=Nc2c(F)cc(-c3nc(Nc4ccc(C5CCN(C)CC5)cn4)ncc3F)cc2C12CCCC2.O=C(O)/C=C/C(=O)O [Compound A]
[A] 2010 nM

* * *

# Tested on: A549
# protocol: Proliferation inhibition, non-small cell lung cancer cell line A549
# Format: cell-based
# measurement_setup: Homo sapiens, A549, 72 h
assay_metric: IC50 (µM)
Answer in µM, number only, no unit symbol.

[Q] Identify measured IC50 obtained with A549 for CC1=Nc2c(F)cc(-c3nc(Nc4ccc(C5CCN(C)CC5)cn4)ncc3F)cc2C12CCCC2.O=C(O)/C=C/C(=O)O .
[A] 0.066

* * *

# System: NCI-H1915
# protocol: Proliferation inhibition, non-small cell lung cancer cell line NCI-H1915
# Format: cell-based
# measurement_setup: Homo sapiens, NCI-H1915, 72 h
assay_metric: pIC50
pIC50 is a log-scale quantity: -log10 of the concentration expressed in molar.

[Q] Provide pIC50, recorded with NCI-H1915, of CC1=Nc2c(F)cc(-c3nc(Nc4ccc(C5CCN(C)CC5)cn4)ncc3F)cc2C12CCCC2.O=C(O)/C=C/C(=O)O [Compound A]
[A] 7.28
